# measured.target: Ephrin type-A receptor 8 (Homo sapiens)
# details: at 10 µM
Reported values of residual activity for individual entries
State the answer as a number, implicitly in %.

>>> reported_result("O=C(Nc1nc2ccccc2n1CCN1CCOCC1)c1cccc([N+](=O)[O-])c1")
103

Continue with the compound presented below.
Form field - read-out: residual activity; system: Ephrin type-A receptor 8 (Homo sapiens); submitted item: O=C1NC(=O)C(c2cn(CCCO)c3ncccc23)=C1c1cnccn1 94

----------
# measured.target: Fibroblast growth factor receptor 3 (Homo sapiens)
# details: at 1 µM
Reported values of residual activity for individual entries
State the answer as a number, implicitly in %.

Worked set:
>>> reported_result("NC(=O)Nc1sc(-c2ccc(F)cc2)cc1C(N)=O")
81
>>> reported_result("Cc1cc(C)c(/C=C2\\C(=O)Nc3ccccc32)[nH]1")
80
>>> reported_result("COc1cc2c(cc1OC)-c1n[nH]c(Nc3cccc(F)c3)c1C2")
111
>>> reported_result("O=C(O)/C=C/c1cc(Br)c(Br)c(Br)c1Br")
103

Continue with the compound presented below.
I would be grateful if you could share the reported residual activity for O=C1Nc2ccc(Cl)cc2/C1=C/c1cc(Cl)c(O)c(Cl)c1 . 96

----------
# measured.target: Protein kinase C zeta type (Homo sapiens) (UniProt Q05513)
# Sequence (whole entry): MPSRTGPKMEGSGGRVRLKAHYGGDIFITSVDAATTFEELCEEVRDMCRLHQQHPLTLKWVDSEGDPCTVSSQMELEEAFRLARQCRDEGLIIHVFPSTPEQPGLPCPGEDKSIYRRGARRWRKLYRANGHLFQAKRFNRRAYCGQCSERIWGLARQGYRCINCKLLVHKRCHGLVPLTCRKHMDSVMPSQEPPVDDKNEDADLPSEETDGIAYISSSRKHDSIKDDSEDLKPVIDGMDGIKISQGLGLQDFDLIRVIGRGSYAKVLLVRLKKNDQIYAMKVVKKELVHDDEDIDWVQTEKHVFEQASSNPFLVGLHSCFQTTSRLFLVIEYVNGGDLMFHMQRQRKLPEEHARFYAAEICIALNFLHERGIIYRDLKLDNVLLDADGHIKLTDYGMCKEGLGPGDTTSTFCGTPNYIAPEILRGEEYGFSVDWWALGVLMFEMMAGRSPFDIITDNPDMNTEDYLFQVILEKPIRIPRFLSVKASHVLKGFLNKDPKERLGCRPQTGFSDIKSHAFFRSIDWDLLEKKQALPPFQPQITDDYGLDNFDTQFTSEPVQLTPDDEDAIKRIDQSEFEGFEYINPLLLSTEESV
# details: at 1 µM
measured.metric: residual activity (%)
State the answer as a number, implicitly in %.

Worked set:
>>> reported_result("O=c1cc(N2CCOCC2)oc2c1ccc1ccccc12")
109
>>> reported_result("NC(=O)Nc1sc(-c2ccc(F)cc2)cc1C(N)=O")
114
>>> reported_result("COc1cc2nccc(Oc3ccc(NC(=O)Nc4cc(C)on4)c(Cl)c3)c2cc1OC")
108
>>> reported_result("CCCCc1c(-c2ccc(OC)cc2)[nH]c2nccnc12")
114
>>> reported_result("c1ccc(-c2cnc(Nc3ccc(OCCN4CCCC4)cc3)s2)cc1")
106

Form field - read-out: residual activity; system: Protein kinase C zeta type (Homo sapiens) (UniProt Q05513); submitted item: O=C(NC(NC(=S)Nc1ccc(F)c([N+](=O)[O-])c1)C(Cl)(Cl)Cl)C(c1ccccc1)c1ccccc1 (stereo unspecified) 102

Another: O=C1NC(=O)C(c2c[nH]c3ccccc23)=C1c1c[nH]c2ccccc12 78

Another: CC(C)(C)n1nc(Cc2cccc3ccccc23)c2c(N)ncnc21 103

Another: NCCNc1ncc(C(N)=O)c(Nc2cccc(C(F)(F)F)c2)n1 101

Another: COc1ccc(CNC(=O)Nc2ncc([N+](=O)[O-])s2)cc1 104

Another: COc1cc2c(cc1OC)-c1n[nH]c(Nc3cccc(F)c3)c1C2 111

The measured values listed here are drawn from ChEMBL document CHEMBL2218924.
